Data origin: the supplement of paper PMC11451515

Task for the reader: assign each of the following molecules its reported cell viability.
Test system: P12-Ichikawa
Assay name: cell viability relative to DMSO control; higher = less cytotoxic
Test settings: RPMI 5 mM glucose + 10% dialyzed FBS; 48 h; 0.569 µM
Give just the number in %; leave the unit off.

Find the measured cell viability: item "S=P(N1CC1)(N1CC1)N1CC1" , target or system P12-Ichikawa. 96.2

Find the measured cell viability: item "Cc1cn(-c2cc(NC(=O)c3ccc(C)c(Nc4nccc(-c5cccnc5)n4)c3)cc(C(F)(F)F)c2)cn1" , target or system P12-Ichikawa. 114

Find the measured cell viability: item CCOC(=O)\C1=C(/C)N\C2=C(C1C3=CC=C(C=C3)C4=CC=CC=C4)\C(=O)CC(C)(C)C2 (centres undefined) , target or system P12-Ichikawa. 104

Find the measured cell viability: item "CC(C)CC(=O)N[C@H](C(=O)N[C@H](C(=O)N[C@@H](CC(C)C)[C@@H](O)CC(=O)N[C@@H](C)C(=O)N[C@@H](CC(C)C)[C@@H](O)CC(=O)O)C(C)C)C(C)C" , target or system P12-Ichikawa. 107
